B1: library; numbered along this chain (parent)
chain: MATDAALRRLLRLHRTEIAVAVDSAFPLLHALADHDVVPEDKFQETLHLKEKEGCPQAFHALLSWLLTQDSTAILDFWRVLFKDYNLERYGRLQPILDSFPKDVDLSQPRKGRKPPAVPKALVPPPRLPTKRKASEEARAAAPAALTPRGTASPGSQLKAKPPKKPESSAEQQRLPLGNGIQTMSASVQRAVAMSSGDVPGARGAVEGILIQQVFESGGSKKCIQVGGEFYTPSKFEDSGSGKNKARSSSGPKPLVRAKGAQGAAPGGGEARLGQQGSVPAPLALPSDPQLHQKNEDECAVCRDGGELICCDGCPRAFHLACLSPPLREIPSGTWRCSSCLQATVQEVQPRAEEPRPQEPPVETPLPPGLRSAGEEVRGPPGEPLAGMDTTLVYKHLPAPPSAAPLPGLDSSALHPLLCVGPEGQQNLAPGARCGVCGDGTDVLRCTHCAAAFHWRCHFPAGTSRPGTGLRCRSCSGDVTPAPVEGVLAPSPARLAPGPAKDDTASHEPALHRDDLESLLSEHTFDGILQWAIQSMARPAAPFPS

variants of: B1; assay: AIRE transcriptional activation functional score (insulin promoter-GFP; nonsense median 0, synonymous median 1) (normalised score); higher = higher AIRE activity (more reporter activation); settings: with insulin promoter-GFP reporter in HEK293
Reported AIRE transcriptional activation functional score maps to class as: I = under 0.2, II = from 0.2 up to 0.7, III = 0.7 and over

Take a look at these entries with their results.
{"SEQUENCE_VARIANT": "S402Q", "CLASS_NAME": "II"}
{"SEQUENCE_VARIANT": "L49V", "CLASS_NAME": "II"}
{"SEQUENCE_VARIANT": "G228S", "CLASS_NAME": "II"}
{"SEQUENCE_VARIANT": "G150V", "CLASS_NAME": "III"}
{"SEQUENCE_VARIANT": "L7A", "CLASS_NAME": "I"}
{"SEQUENCE_VARIANT": "V348Q", "CLASS_NAME": "II"}

Next up:
Query :: State the band of "A140M"
Result :: II
